Protocol Summary: NCI Yeast Anticancer Drug Screen. Data for the mgt1 strain (AID 153)
Conditions: S. cerevisiae mgt1 mutant growth inhibition; at 100.0 µM; stronger effect = higher value
Protocol: Growth inhibition of yeast strains with defined genetic alterations is measured as a screen for potential anti-cancer activity. Selected strains with alterations in DNA damage repair or cell cycle control were exposed to compounds and growth inhibition was measured relative to vehicle treated controls. The strain used in this assay is mgt1
This is part of a sample that, as a whole, favours compounds with a hit. Of some 79,000 tested, about 15% had one in any assay.
growth inhibition reference
Form entry: value (%) — number only.

Some solved entries appear below for comparison.
O=P(C(=S)Nc1c(Cl)cccc1Cl)(c1ccccc1)c1ccccc1 | 95
NNc1ccccc1-c1nc2ccccc2[nH]1 | 48
O=C1C[C@H]2[C@H](c3ccc(Br)cc3)[C@H]3C(=O)c4ccccc4NC(=O)[C@@H]3[C@@]2(O)c2ccccc2N1 | 36
CCCCCCCCN1COCC(COc2ccccc2C)OC1 (stereo not given) | 99
O=c1c2ccccc2nc(-c2ccc(Cl)cc2)n1O | 93

Report growth inhibition, nothing else, for this compound: "O=S1(=O)CCC2=CC(C(F)(F)F)=CC(C(F)(F)F)=CN21"
98

Give me measured growth inhibition, please, for this compound: "CCN(CC)CC(=O)c1ccc2cc(Cl)c3ccccc3c2c1"
99

Complete the entry with growth inhibition for O=C(O)c1cc2c(cc1S(=O)(=O)O)C1C(C3C2C2(Cl)C(Cl)=C(Cl)C3(Cl)C2(Cl)Cl)C2(Cl)C(Cl)=C(Cl)C1(Cl)C2(Cl)Cl (stereo not given)
96

In one line, give reported growth inhibition of the entry OC(CC(O)(C(F)(F)F)C(F)(F)F)c1ccc(C(O)CC(O)(C(F)(F)F)C(F)(F)F)cc1 (stereo not given) .
99

Output measured growth inhibition for this item: "O=Cc1ccccc1C=O"
91

----------
Protocol Summary: NCI Yeast Anticancer Drug Screen. Data for the rad50EPP+ strain (AID 151);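 further: 0% = growth of vehicle-treated control cultures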
Conditions: S. cerevisiae rad50 mutant strain, at 3.7 µM
This is part of a sample that, as a whole, favours compounds with a hit. Of some 79,000 tested, about 15% had one in any assay. Calls of active or inactive are those of the source. Rule as the data show it: active = growth inhibition above about 70%; inactive = the rest.
Reply using exactly one outcome from true for active, false for inactive

Look over these answered cases.
CCOc1ccc2nc3ccccc3c(N)c2c1 | false
O=C1Nc2ccc(Br)cc2C1=Nc1ccc(Cl)cc1 | false

Record lookup: outcome of this test for "Nc1ccc(/C=C/c2ccc3cccnc3c2)cc1" ?
false

Kindly provide the recorded test outcome for the following compound: "CN(C)CC(CN(C)C)C(=O)/C=C/c1ccc(Cl)cc1Cl"
false

Record request — test call for "COc1cccc(/C=C2\S/C(=N/Nc3nc(-c4ccc([N+](=O)[O-])cc4)cs3)NC2=O)c1O"
false

Could you check what this test reported for NC(CCCCCCCCCCCCC(N)C(=O)c1ccccc1)C(=O)c1ccccc1 (stereo unspecified) ?
false

I'd appreciate the recorded outcome for "O=C(C#Cc1ccccc1)/C=C/c1ccccc1" from this test.
false

----------
Protocol Summary: NCI Yeast Anticancer Drug Screen. Data for the cln2 rad14 strain (AID 165);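 further: 0% = growth equal to vehicle treated cultures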
Conditions: S. cerevisiae cln2 rad14 strain, at 5.0 µM (retest, dose inferred, filed as 0.5)
Compounds without any hit were thinned out: in the full panel of roughly 79,000, 15% have a hit. Active and inactive are the calls of the source. Cut-off read from the data, not from the text of the source: active = growth inhibition above about 70%; inactive = the rest.
Bench note: report the call from active, inactive

Use the examples below as a reference point.
Cc1ccccc1NC(=O)c1c(C)oc2c1C(=O)c1ccccc1C2=O | inactive
CCOP(=O)(OCC)/C(C#N)=C/c1cccc(Oc2ccccc2)c1 | inactive
CC1(C)OC(=O)C(=Cc2ccc([N+](=O)[O-])s2)C(=O)O1 | inactive
CCCCN(CCC#N)c1ccc(/C=C/c2ccnc3ccccc23)cc1 | inactive
CC(=O)/C(=C\c1ccc(Cl)c(Cl)c1)C(=O)C(C)CN(C)C (configuration not stated) | inactive
CCCCCCC1OCC(O)C(OCCCC)O1 (configuration not stated) | inactive
O=C(CCCN1CCC(Nc2ccc(F)cc2)(c2nnnn2C2CCCCC2)CC1)c1ccc(F)cc1 | inactive
NC(N)=NC(N)=Nc1ccccc1 (tested in a mixture with another compound) | inactive

Entry "CCN(CC)CCNc1ccc2nc(C)n3c4ccc(O)cc4c(=O)c1c23" : call = ?
inactive

What did the test return for "O=[N+]([O-])c1cc(Cl)ccc1S(=O)(=O)c1ccc(Cl)cc1[N+](=O)[O-]" ?
inactive

For this molecule, state the assay outcome: CCN1CCC(O)(c2ccc(Oc3ccc(C)cc3)cc2)C(C(=O)c2ccc(Oc3ccc(C)cc3)cc2)C1 (configuration not stated)
inactive

For "NC(=O)NC1C(c2ccccc2)=C1c1ccccc1" , what call appears in the results of this test?
inactive

I would be grateful if you could indicate the recorded call for "CCCCCCCCCCCNC=O" .
inactive

# fetch the recorded call for "C=COC(=O)N[C@H]1CCc2cc(OC)c(OC)c(OC)c2-c2ccc(SC)c(=O)cc21" here
inactive

Given CCC[CH2][Ge]([CH2]CCC)([CH2]CCC)[O]C(=O)C(O)c1ccccc1 (configuration not stated) , state the outcome it received in this test.
inactive

Each molecule tested received a call. Report the one for BrC1C2CCC3OC3C12 (configuration not stated) .
inactive

Which outcome was entered for the molecule CC12CCC(CC(=O)/C1=C(/Br)I)C2(C)C (configuration not stated) in this test?
inactive

Every entry's value here was drawn from PubChem BioAssay (NCI).
